- Assay Protocol: yeast display, Sf9 membrane polyspecificity reagent, FACS + sequencing; frameworks hold sequencing errors
Readout Name: polyreactivity (PSR sort gate)

Field: example entries. Status: answers known.
QLQLVESGGGLVQAGGSLRLSCAASGRTFVYNVMGWYRQAPGKERELVAAISSGGSTNYADSVKGRFTNSRDNAKNTVYLQMNRLKPEDSAVYYCNAGTLNYRYRWGHYYDSWGQGTQVTVSS ... low polyreactivity
QVQLVESGGGLVQAGGSLRLSCAASGSTFDVYAMGWYRQAPGKERELVAAITQSGGSTYYADSVKGRFTISRDNAKNTVYLQMNSLKTEDTAVYYCAAREWRSFDYWGQGTQVTVSS ... low polyreactivity
QVQLEESGGGLVQAGGSLRLSCAASGSTFSRYAMGWYRPAPGKEREFVAAISRRAGGTYYADSVKGRFTISRDNAKNTVYLQMNSLKPEDTAVYYCATVLPRDYIGRATYDYWGQGTQVTVSS ... high polyreactivity
QVQLVESGGCLVQAGGSLRLSCAASGRISVFYAMGWYRQAPGKERELVAAITRSGTTKYADSVKGRFTISRDNAKNTVYLQMNSLKPEDTAVYYCAVRRYRARFGYWGKGTQVTVSS ... high polyreactivity
QVQLVESGGGLVQAGGSLRLSCAASRSTFPKYAMGWNRKAPGKERELVASISVTTGSPYYADSVKGRFTISLDNAKNTVYLQKNSLKPEDTAVYYCAKRTYSRKFRGAYNYWGQGTQVSVSS ... high polyreactivity
QVQLVESGGGLVQAGGSLRLSCAASGFTIQRYAMGWYRQAPGKERELVAAITSGGSTYYADSVKGRFTISRDNAKNTVYLQMNSLKPEDTAVYYCATRAVWSSWGRRYDSWGQGTQVTVSS ... high polyreactivity

For this sequence ( QVQLVESRGGLVQAGGSLRLSCAASGIIFPRYAMGRYRQAPRKERELVAAITRRGGRTYYADSVKGRFTISRDNANNTVYLQMNSLKPEDTAVYYCNADFISTRPPKATDEDYWGQGTQVTVSS ), measured polyreactivity (PSR sort gate) is high polyreactivity

For this sequence ( QVQLVESGGGLVQAGGSLRLSCAASGRIFGRNAMGWYRQAPGKERELVAAISSGSGSTYYADSVKGRFTISRDNAKNTVYLQMISLKPEDTAVYYCAATVSTYLAWRGYWGQGTQVTVSS ), measured polyreactivity (PSR sort gate) is high polyreactivity

For this sequence ( QVQLVESGGGLVQAGGSLRLSCAASGRIFDTYAMGWYRQAPGKERELVAAITRRGGSTYYADSVKGRFTISRDNAKNTVYLQMNSLKPEDSAVYYCAKSLVNRHYDYWGQGTQVTVSS ), measured polyreactivity (PSR sort gate) is low polyreactivity

For this sequence ( QVQLVESGGGLVQAGGSLRLSCAASGSTFYGYAMGWYRQAPGKERELVAAISGGGSTNYADSVKGRFTISRDNAKNTVYLQMNSLKPEDTAVYYCAARTTVYRRYGRNYWGQGTQVTVSS ), measured polyreactivity (PSR sort gate) is high polyreactivity

* * *

- Assay Protocol: yeast display, Sf9 membrane polyspecificity reagent, FACS + sequencing; frameworks hold sequencing errors
Readout Name: polyreactivity (PSR sort gate)

QVQLVESGGRLVQAGGSLRLSCAPSGRIFWAYAMGWYRPAPGKERELVAAITSGGSTYYADSVKGRFTISRDNAKNTVYLQMNSLKPEDTAVYYCAVGSKWVDDSPEDVYWGQGTQVTVSS ... low polyreactivity
QVQLVESGGGLVQAGGSLRLSCAASGITYEGYAMGWNRKAPGKERELVAAIRSSGTSTYYADSVKGRFTISRDNAKNSVYLQMNSLKPEDTAVYYCNRARSSSRYDYWGQGTQVTVSS ... low polyreactivity
